Target desc: Neuropeptide Y receptor type 2 (Rattus norvegicus, UniProt Q9ERC0)
Sequence (Q9ERC0 whole entry): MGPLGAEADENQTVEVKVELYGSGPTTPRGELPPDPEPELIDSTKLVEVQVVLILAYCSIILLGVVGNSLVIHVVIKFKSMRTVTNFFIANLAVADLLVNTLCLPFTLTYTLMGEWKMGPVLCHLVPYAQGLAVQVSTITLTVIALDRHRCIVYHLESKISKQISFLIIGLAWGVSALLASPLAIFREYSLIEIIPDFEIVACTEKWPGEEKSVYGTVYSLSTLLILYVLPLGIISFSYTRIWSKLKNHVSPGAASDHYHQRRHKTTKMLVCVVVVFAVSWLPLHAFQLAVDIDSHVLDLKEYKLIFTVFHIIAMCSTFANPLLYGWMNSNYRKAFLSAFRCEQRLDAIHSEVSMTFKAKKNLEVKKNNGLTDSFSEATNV
Procedure text: Antisecretory potency, affinity for intestinal PYY of rat jejunum by using short circuit current (SCC) method.
Format: tissue-based
*1 amine or outer side, *2 acyl side, *3 side chain or, on linkers, in order; H or OH if unused. Where a SMILES comes first, the peptide text is derived from it. Side-chain parts run from the residue outwards. [ ]: non-standard residue; d: D form. X3 = CC(C)C[C@@H](CN([C@@H](CCCNC(=N)N)C(=O)[*:2])[*:1])N[*:3]; Tic = O=C(O)[C@@H]1Cc2ccccc2CN1
Metric name: IC50 (nM)
Output spec: scalar in nM, unitless text.

Q: Input CC(=O)N[C@@H](C)C(=O)N[C@@H](CO)C(=O)N[C@@H](CC(C)C)C(=O)N[C@@H](CCCNC(=N)N)C(=O)N[C@@H](Cc1cnc[nH]1)C(=O)N1Cc2ccccc2C[C@H]1C(=O)N[C@@H](CC(C)C)C(=O)N[C@@H](CC(N)=O)C(=O)N[C@@H](CC(C)C)C(=O)N[C@H](C(=O)N[C@H](C(=O)N[C@@H](CCCNC(=N)N)C(=O)N[C@@H](CCC(N)=O)C(=O)N[C@@H](CCCNC(=N)N)C(=O)N[C@@H](Cc1ccc(O)cc1)C(N)=O)[C@@H](C)O)C(C)C (Ac-ASLRH[Tic]LNLVTRQRY-NH2) , output reported IC50.
Result: 3.4

Q: Input CC(=O)N[C@@H](C)C(=O)N[C@@H](CO)C(=O)N[C@H](CN[C@@H](CCCNC(=N)N)C(=O)N[C@@H](Cc1cnc[nH]1)C(=O)N[C@@H](Cc1ccc(O)cc1)C(=O)N[C@@H](CC(C)C)C(=O)N[C@@H](CC(N)=O)C(=O)N[C@@H](CC(C)C)C(=O)N[C@H](C(=O)N[C@H](C(=O)N[C@@H](CCCNC(=N)N)C(=O)N[C@@H](CCC(N)=O)C(=O)N[C@@H](CCCNC(=N)N)C(=O)N[C@@H](Cc1ccc(O)cc1)C(N)=O)[C@@H](C)O)C(C)C)CC(C)C (H-[X3]([Ser-Ala-Ac])HYLNLVTRQRY-NH2) , output reported IC50.
Result: 2.76

Q: Input CCCC[C@H](NC(=O)[C@H](CO)NC(=O)[C@H](C)NC(C)=O)C(=O)N[C@@H](CCCN=C(N)N)C(=O)N[C@@H](Cc1c[nH]cn1)C(=O)N[C@@H](Cc1ccc(O)cc1)C(=O)N[C@@H](CCCC)C(=O)N[C@@H](CC(N)=O)C(=O)N[C@@H](CCCC)C(=O)N[C@@H](CCC)C(=O)N[C@H](C(=O)N[C@@H](CCCN=C(N)N)C(=O)N[C@@H](CCC(N)=O)C(=O)N[C@@H](CCCN=C(N)N)C(=O)N[C@@H](Cc1ccc(O)cc1)C(N)=O)[C@@H](C)O , output reported IC50.
Result: 0.59

Each recorded value in this set is attributed to ChEMBL document CHEMBL1133640.
